Measured values drawn from patent US12410171B2 for this set.

target_or_test_system: TPM3-TRKA fusion protein (Homo sapiens)
Construct: The resulted chimeric proteins always retain the kinase domain of TRK proteins; TPM3 (fusion partner, N-terminal part of tropomyosin alpha-3, P06753); endogenous in cells; host or cells: KM12 colon cancer cells; the other entry of the earlier key: TPM3 (P06753, Tropomyosin alpha-3 chain)
Sequence (P04629 with tags, fused parts or gaps): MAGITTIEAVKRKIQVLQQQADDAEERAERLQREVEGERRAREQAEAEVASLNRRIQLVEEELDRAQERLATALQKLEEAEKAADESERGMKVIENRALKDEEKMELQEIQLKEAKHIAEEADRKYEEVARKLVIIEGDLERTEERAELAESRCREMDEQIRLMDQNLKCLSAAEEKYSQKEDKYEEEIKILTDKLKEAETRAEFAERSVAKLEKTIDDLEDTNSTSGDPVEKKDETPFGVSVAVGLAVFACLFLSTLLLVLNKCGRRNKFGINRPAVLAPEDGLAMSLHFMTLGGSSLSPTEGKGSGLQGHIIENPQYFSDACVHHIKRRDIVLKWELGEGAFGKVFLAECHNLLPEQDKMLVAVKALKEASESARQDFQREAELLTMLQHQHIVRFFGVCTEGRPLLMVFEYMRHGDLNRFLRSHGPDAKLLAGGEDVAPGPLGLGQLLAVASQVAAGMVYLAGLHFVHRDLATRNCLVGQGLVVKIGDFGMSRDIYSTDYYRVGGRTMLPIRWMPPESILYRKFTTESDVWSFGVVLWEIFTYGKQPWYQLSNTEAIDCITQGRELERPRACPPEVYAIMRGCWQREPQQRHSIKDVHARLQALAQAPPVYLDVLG
test_description: TPM3-TRKA fusion protein levels in KM12 cells (Western blot)
Type: cell-based
test_parameters: 16 h; TPM3-TRKA degradation in KM12 cells at 10 nM compound, category of percentage degradation; read-out: Degradation (at 10 nM)
observed_property: percent degradation of TPM3-TRKA protein at 0.01 µM

Example cases with answers are listed next.
O=C1CCC(N2C(=O)c3ccc(C4CN(CC5CCN(c6ccc(C(=O)Nc7n[nH]c8ccc(Cc9cc(F)cc(F)c9)cc78)c(NC7CCOCC7)c6)CC5)C4)cc3C2=O)C(=O)N1 (centres unmarked) ... > 80%
O=C1CCC(N2C(=O)c3ccc(CN4CCCC(N5CCN(c6ccc(C(=O)Nc7n[nH]c8ccc(Cc9cc(F)cc(F)c9)cc78)c(NC7CCOCC7)c6)CC5)C4)cc3C2=O)C(=O)N1 (centres unmarked) ... > 80%
O=C1CCC(N2Cc3cc(N4CC(CN5CCN(c6ccc(C(=O)Nc7n[nH]c8ccc(Cc9cc(F)cc(F)c9)cc78)c(NC7CCOCC7)c6)CC5)C4)ccc3C2=O)C(=O)N1 (centres unmarked) ... 50 to 80%
Cc1ncsc1-c1ccc(CNC(=O)[C@@H]2C[C@@H](O)CN2C(=O)[C@@H](NC(=O)CCCCCCCC(=O)N2CCN(c3ccc(C(=O)Nc4n[nH]c5ccc(Cc6cc(F)cc(F)c6)cc45)c(NC4CCOCC4)c3)CC2)C(C)(C)C)cc1 ... 50 to 80%

Please find the next compound below.
Param item = O=C1CCC(N2C(=O)c3cccc(CN4CC(CN5CCN(c6cccc(-c7cnc8ccc(N9CCC[C@@H]9c9cccc(F)c9)nn78)n6)CC5)C4)c3C2=O)C(=O)N1 (some centres unmarked) ; retrieve measured percent degradation of TPM3-TRKA protein at 0.01 µM.
> 80%
